TARGET_ENTITY: furin, P09958;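 further: purified furin at 1:10 enzyme:substrate in 50 mM HEPES pH 7.5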
Sequence (P09958 whole entry): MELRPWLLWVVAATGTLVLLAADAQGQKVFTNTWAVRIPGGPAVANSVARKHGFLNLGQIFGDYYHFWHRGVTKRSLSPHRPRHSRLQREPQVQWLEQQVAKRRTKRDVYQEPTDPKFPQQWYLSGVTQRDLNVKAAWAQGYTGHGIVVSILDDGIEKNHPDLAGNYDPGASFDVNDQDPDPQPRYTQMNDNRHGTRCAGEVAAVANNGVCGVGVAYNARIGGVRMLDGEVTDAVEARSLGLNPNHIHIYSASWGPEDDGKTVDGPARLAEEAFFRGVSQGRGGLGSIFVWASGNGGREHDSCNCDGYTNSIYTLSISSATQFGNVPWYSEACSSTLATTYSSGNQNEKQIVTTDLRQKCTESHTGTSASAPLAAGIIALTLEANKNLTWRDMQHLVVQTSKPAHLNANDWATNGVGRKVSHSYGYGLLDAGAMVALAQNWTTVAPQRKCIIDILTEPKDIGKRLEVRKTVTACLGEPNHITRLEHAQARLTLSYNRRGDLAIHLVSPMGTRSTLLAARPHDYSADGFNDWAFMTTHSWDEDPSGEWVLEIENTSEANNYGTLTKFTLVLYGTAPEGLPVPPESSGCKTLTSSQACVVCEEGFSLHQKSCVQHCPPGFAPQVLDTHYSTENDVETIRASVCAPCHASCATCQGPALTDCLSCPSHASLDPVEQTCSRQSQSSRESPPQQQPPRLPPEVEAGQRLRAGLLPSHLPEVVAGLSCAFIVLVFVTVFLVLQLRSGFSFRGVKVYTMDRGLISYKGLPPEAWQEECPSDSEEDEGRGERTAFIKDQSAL
PROTOCOL: furin cleavage Z-score vs untreated control; higher = more cleavage, active = 3.5 or more, inactive = 1 or less, 8 variable residues between constant flanks
CONDITIONS: 7.5 min
Some of the results follow. No count for the full screen is at hand.
MEASUREMENT_KIND: furin cleavage Z-score

1. CATIFKIRMYAGNASASA [HC473] | -0.151 (inactive)
2. CARIPQAILDAGNASASA [HC330] | -0.397 (inactive)
3. CARNRRSILDAGNASASA [FS-2733] | 6.77 (active)
4. CATTPCSGSWAGNASASA [HC54] | -0.34 (inactive)
5. CAVGRVVLSGAGNASASA [HC1002] | -0.201 (inactive)

# batch: return furin cleavage Z-score for each of the 2 sequences below
1. CAKEMEECSQAGNASASA [HC1794]
2. CARNRRHPRSAGNASASA [FS-560]

// result
["0.752 (inactive)", "11.3 (active)"]

Attribution: the supplement of paper PMC3545927
